Test system: Botrytis cinerea
assayText: Antifungal activity against Botryotinia fuckeliana KUCC 869 assessed as growth inhibition at 200 ug/ml at 27 to 29 degC after 7 days by agar tube dilution method
Type: functional
measurementContext: KUCC 869, 168 h, read-out: GI
I'd appreciate it if you could supply inhibition of growth at 200 µg/mL values for the items below.
// note: answer is a bare numeric in %

Ask: Look up inhibition of growth at 200 µg/mL with Botrytis cinerea for this compound: `CO[C@H]1C[C@@](C)(CO)[C@@H]2CC[C@@]3(C)C[C@]12CC[C@H]3O`
Result: 17

Ask: Item `CC1(C)C[C@H](O)[C@]23CC[C@H](O)[C@@](C)(CC[C@@H]12)C3` with Botrytis cinerea - inhibition of growth at 200 µg/mL?
Result: 32

Ask: What measured inhibition of growth at 200 µg/mL is associated with `C[C@@]12CC[C@H]3[C@](C)(CO)C[C@H](O)[C@@]3(CCC1=O)C2` on Botrytis cinerea?
Result: 8
